assay.protocol: Apparent clearance during terminal phase in Sprague-Dawley rat plasma at 16 mg/kg administered through oral gavage measured at 5 mins to 24 hrs post dosing by LC/MS analysis
Format: ADME, organism-based
test.settings: read-out: CLz/F (converted)
measured.parameter: CL/F (mL/min/kg)
The response must be a number in mL/min/kg with no trailing unit.

# input Given Cc1cc(C#N)cc(C)c1Oc1nc(NC2CCN(Cc3ccc(S(N)(=O)=O)cc3)CC2)nc2ccsc12 , state its recorded CL/F.
# output 155

----------
assay.protocol: MRT (0 to t) in Sprague-Dawley rat plasma at 8 mg/kg administered through oral gavage measured at 5 mins to 24 hrs post dosing by LC/MS analysis
Type: ADME, organism-based
measured.parameter: MRT last (h)
The response must be a number in h with no trailing unit.

# input Given Cc1cc(C#N)cc(C)c1Oc1nc(NC2CCN(Cc3ccc(S(N)(=O)=O)cc3)CC2)nc2ccsc12 , state its recorded MRT last.
# output 3.44

----------
assay.protocol: Selectivity index, ratio of CC50 for human mock-infected MT4 cells to EC50 for HIV1 RES056 harboring reverse transcriptase K103N/Y181C double mutant infected in human MT4 cells
Format: toxicity, cell-based
test.settings: MT4 cells (mock-infected for CC50, HIV-1 infected for EC50)
measured.parameter: selectivity ratio
Give the figure only, with no unit attached.

Here is how some compounds turned out for selectivity ratio.
>>> readout_number("Cc1cc(C#N)cc(C)c1Oc1nc(NC2CCN(Cc3ccccc3C#N)CC2)nc2ccsc12")
7
>>> readout_number("Cc1cc(C)c(Oc2nc(NC3CCN(Cc4ccncc4)CC3)nc3ccsc23)c(C)c1")
27
>>> readout_number("Cc1cc(C#N)cc(C)c1Oc1nc(NC2CCN(Cc3ccncc3)CC2)nc2ccsc12")
32
>>> readout_number("COC(=O)c1ccc(CN2CCC(Nc3nc(Oc4c(C)cc(C)cc4C)c4sccc4n3)CC2)cc1")
5
>>> readout_number("Cc1cc(C)c(Oc2nc(NC3CCN(Cc4cccc(F)c4)CC3)nc3ccsc23)c(C)c1")
3
>>> readout_number("Cc1cc(C#N)cc(C)c1Oc1nc(NC2CCN(Cc3ccc(NS(C)(=O)=O)cc3)CC2)nc2ccsc12")
261
>>> readout_number("Cc1cc(C)c(Oc2nc(NC3CCN(Cc4ccc(S(C)(=O)=O)cc4)CC3)nc3ccsc23)c(C)c1")
12
>>> readout_number("Cc1ccccc1CN1CCC(Nc2nc(Oc3c(C)cc(C#N)cc3C)c3sccc3n2)CC1")
13

# input Given Cc1cc(C#N)cc(C)c1Oc1nc(NC2CCN(Cc3ccc(C(N)=O)cc3)CC2)nc2ccsc12 , state its recorded selectivity ratio.
# output 1110

# input Given CCOC(=O)c1ccc(CN2CCC(Nc3nc(Oc4c(C)cc(C#N)cc4C)c4sccc4n3)CC2)cc1 , state its recorded selectivity ratio.
# output 1

# input Given Cc1cc(C#N)cc(C)c1Oc1nc(NC2CCN(Cc3ccc(S(N)(=O)=O)cc3)CC2)nc2ccsc12 , state its recorded selectivity ratio.
# output 53500

# input Given Cc1cc(C)c(Oc2nc(NC3CCN(Cc4cccc(C(N)=O)c4)CC3)nc3ccsc23)c(C)c1 , state its recorded selectivity ratio.
# output 1

# input Given COC(=O)c1ccc(CN2CCC(Nc3nc(Oc4c(C)cc(C#N)cc4C)c4sccc4n3)CC2)cc1 , state its recorded selectivity ratio.
# output 59

----------
System: Human immunodeficiency virus 1
assay.protocol: Antiviral activity against HIV1 3B harboring reverse transcriptase E138K mutant infected in human MT4 cells assessed as protection against virus induced cytotoxicity after 5 days by MTT assay
Type: functional, cell-based
test.settings: Human immunodeficiency virus 1, 3B, MT4, 120 h
measured.parameter: EC50 (µM)
The response must be a number in µM with no trailing unit.

>>> readout_number("Cc1cc(C#N)cc(C)c1Oc1nc(NC2CCN(Cc3ccc(C(N)=O)cc3)CC2)nc2ccsc12")
0.0045
>>> readout_number("Cc1cc(C)c(Oc2nc(NC3CCN(Cc4ccc(S(C)(=O)=O)cc4)CC3)nc3ccsc23)c(C)c1")
0.0182
>>> readout_number("CC(=O)NS(=O)(=O)c1ccc(CN2CCC(Nc3nc(Oc4c(C)cc(C#N)cc4C)c4sccc4n3)CC2)cc1")
0.0088
>>> readout_number("Cc1cc(C)c(Oc2nc(NC3CCN(Cc4ccc([N+](=O)[O-])cc4)CC3)nc3ccsc23)c(C)c1")
0.126
>>> readout_number("O=C1Nc2ccc(Cl)cc2[C@@](C#CC2CC2)(C(F)(F)F)O1")
0.0052

# input GET /values?readout=EC50&system=Human immunodeficiency virus 1&item= Cc1cn([C@H]2C[C@H](N=[N+]=[N-])[C@@H](CO)O2)c(=O)[nH]c1=O
# output 0.0073

# input GET /values?readout=EC50&system=Human immunodeficiency virus 1&item= Cc1cc(C)c(Oc2nc(NC3CCN(Cc4ccc(F)cc4)CC3)nc3ccsc23)c(C)c1
# output 0.166

# input GET /values?readout=EC50&system=Human immunodeficiency virus 1&item= Cc1cc(C)c(Oc2nc(NC3CCN(Cc4cccc(C(N)=O)c4)CC3)nc3ccsc23)c(C)c1
# output 0.051

----------
assay.protocol: Selectivity index, ratio of CC50 for human mock-infected MT4 cells to EC50 for HIV1 3B harboring reverse transcriptase L100I mutant infected in human MT4 cells
Format: toxicity, cell-based
test.settings: MT4 cells (mock-infected for CC50, HIV-1 infected for EC50)
Listed molecules paired with reported selectivity ratio
Give the figure only, with no unit attached.

Here is how some molecules turned out for selectivity ratio.
>>> readout_number("Cc1cc(C)c(Oc2nc(NC3CCN(Cc4ccc(S(C)(=O)=O)cc4)CC3)nc3ccsc23)c(C)c1")
143
>>> readout_number("Cc1cc(C)c(Oc2nc(NC3CCN(Cc4cccc(F)c4)CC3)nc3ccsc23)c(C)c1")
16
>>> readout_number("Cc1cc(C#N)cc(C)c1Oc1nc(NC2CCN(Cc3ccc(NS(C)(=O)=O)cc3)CC2)nc2ccsc12")
5020

# input Given Cc1cc(C#N)cc(C)c1Oc1nc(NC2CCN(Cc3ccncc3)CC2)nc2ccsc12 , state its recorded selectivity ratio.
# output 253

# input Given Cc1cc(C#N)cc(C)c1Oc1nc(NC2CCN(Cc3ccc(F)cc3)CC2)nc2ccsc12 , state its recorded selectivity ratio.
# output 1550

# input Given Cc1cc(C)c(Oc2nc(NC3CCN(Cc4cccc(C(N)=O)c4)CC3)nc3ccsc23)c(C)c1 , state its recorded selectivity ratio.
# output 19

----------
assay.protocol: Selectivity index, ratio of CC50 for human mock-infected MT4 cells to EC50 for HIV1 3B harboring reverse transcriptase Y181C mutant infected in human MT4 cells
Format: toxicity, cell-based
test.settings: MT4 cells (mock-infected for CC50, HIV-1 infected for EC50)
Listed compounds paired with reported selectivity ratio
Give the figure only, with no unit attached.

Here is how some compounds turned out for selectivity ratio.
>>> readout_number("Cc1cc(C#N)cc(C)c1Oc1nc(NC2CCN(Cc3ccc(C(N)=O)cc3)CC2)nc2ccsc12")
18100
>>> readout_number("CNS(=O)(=O)c1ccc(CN2CCC(Nc3nc(Oc4c(C)cc(C#N)cc4C)c4sccc4n3)CC2)cc1")
911
>>> readout_number("Cc1cc(C)c(Oc2nc(NC3CCN(Cc4ccc([N+](=O)[O-])cc4)CC3)nc3ccsc23)c(C)c1")
32

// moving on: another record for selectivity ratio
# input Given Cc1cc(C)c(Oc2nc(NC3CCN(Cc4ccc(C(N)=O)cc4)CC3)nc3ccsc23)c(C)c1 , state its recorded selectivity ratio.
# output 135

----------
assay.protocol: Selectivity index, ratio of CC50 for human mock-infected MT4 cells to EC50 for HIV1 3B harboring reverse transcriptase Y188L mutant infected in human MT4 cells
Format: toxicity, cell-based
test.settings: MT4 cells (mock-infected for CC50, HIV-1 infected for EC50)
Listed compounds paired with reported selectivity ratio
Give the figure only, with no unit attached.

Here is how some compounds turned out for selectivity ratio.
>>> readout_number("Cc1cc(C)c(Oc2nc(NC3CCN(Cc4ccc(F)cc4F)CC3)nc3ccsc23)c(C)c1")
18
>>> readout_number("Cc1cc(C)c(Oc2nc(NC3CCN(Cc4ccc(F)cc4)CC3)nc3ccsc23)c(C)c1")
17

# input Given Cc1cc(C)c(Oc2nc(NC3CCN(Cc4ccc(S(N)(=O)=O)cc4)CC3)nc3ccsc23)c(C)c1 , state its recorded selectivity ratio.
# output 2

----------
assay.protocol: Selectivity index, ratio of CC50 for human mock-infected MT4 cells to EC50 for wild type HIV1 3B harboring reverse transcriptase infected in human MT4 cells
Format: toxicity, cell-based
test.settings: MT4 cells (mock-infected for CC50, HIV-1 infected for EC50)
Listed molecules paired with reported selectivity ratio
Give the figure only, with no unit attached.

Here is how some molecules turned out for selectivity ratio.
>>> readout_number("Cc1cc(C#N)cc(C)c1Oc1nc(NC2CCN(Cc3ccc(S(C)(=O)=O)cc3)CC2)nc2ccsc12")
1000
>>> readout_number("Cc1cc(C)c(Oc2nc(NC3CCN(Cc4ccc(F)cc4)CC3)nc3ccsc23)c(C)c1")
465
>>> readout_number("Cc1cc(C)c(Oc2nc(NC3CCN(Cc4ccc([N+](=O)[O-])cc4)CC3)nc3ccsc23)c(C)c1")
201

// moving on: another record for selectivity ratio
# input Given Cc1cc(C#N)cc(C)c1Oc1nc(NC2CCN(Cc3cccc(F)c3)CC2)nc2ccsc12 , state its recorded selectivity ratio.
# output 17500
